Tested on: Hepatitis C virus
Experiment: Non competitive inhibition of Hepatitis C virus 1b J4 recombinant NS5B Cdelta 21 RNA dependent RNA polymerase overexpressed in Escherichia coli BL21 (DE3) in presence of radiolabeled 20 nM GTP
Parameters: species or system Hepatitis C virus subtype 1b
Property Name: IC50 (nM)
Numeric only. Scale: nM

Q: State IC50 on Hepatitis C virus. Entry: CC(=O)N1c2ccccc2NC2=C(C(=O)CC(C)(C)C2)C1c1ccc(OCc2ccccc2)c(Cl)c1 (single isomer, unassigned; 4a)
A: 1000

----------
Test: Cytotoxicity against human MT4 cells after 3 days by ATPLite assay
Type: cell-based
Details: MT4 cells
Property Name: CC50 at 72 h

Q: // fetch CC50 at 72 h given entry CC(=O)N1c2cccc(O)c2NC2=C(C(=O)CC(C)(C)C2)C1c1ccc(OCc2ccccc2)cc1Cl (single isomer, unassigned; 7a)
A: 56.5 µM

The measured values listed here are drawn from ChEMBL document CHEMBL1671641.
